Target: T1, human IL2Rγ (endogenously expressed on cells) (human, UniProt P31785 23-369)
T1 sequence (looked up): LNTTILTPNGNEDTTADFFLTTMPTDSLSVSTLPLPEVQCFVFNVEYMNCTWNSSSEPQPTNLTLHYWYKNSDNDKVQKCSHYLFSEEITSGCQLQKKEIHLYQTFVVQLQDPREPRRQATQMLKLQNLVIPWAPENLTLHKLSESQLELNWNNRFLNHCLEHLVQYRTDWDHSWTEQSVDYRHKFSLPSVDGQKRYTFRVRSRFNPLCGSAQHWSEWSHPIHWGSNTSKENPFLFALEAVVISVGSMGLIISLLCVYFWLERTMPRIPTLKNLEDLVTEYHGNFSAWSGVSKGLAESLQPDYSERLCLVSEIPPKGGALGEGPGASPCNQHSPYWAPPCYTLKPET
Test: cell-based or functional assay
// reported Max Inhibition (%); IL-15 60 pM; NK92/hIL7R/STAT3-luc per item
Numeric only. Scale: %

BINDER | UNIT_ABBREV | RESULT
H4H12857P (antibody, human IgG4 S228P, kappa, V domains shown, human IgG4; also called REGN9432) VH: EVQLVESGGGVVRPGGSLRLSCAASGFTFDDFDMSWVRQGPGKGLEWVSGINWHGSSTGYADSVKGRFTISRDNAKNSLYLQMSSLRAEDTALYHCVRGGTIVGATTPLDYWGQGTLVTVSS VL: DIQMTQSPSSLSASVGDRVTMTCRASRTISSYLSWYQQKSGKVPNLLIFGASSLQSGVPSRFSASGSGTDFTLIISSLQPEDFATYYCQQSYSSPLTFGGGTKVEIKR | % | 78
H4H12863P (antibody, human IgG4 S228P, kappa, V domains shown, human IgG4) VH: QVQLVESGGGVVQPGRSLRLSCTASGFTFRSYDMYWVRQAPGKGLEWVSVITYDGNNKYYADSVKGRFTISRDNSKNTLFLQMSSLRPEDTAVYYCAKRGLIWVGESFDYWGQGTLVTVSS VL: DIQMTQSPSTLSASVGDRVTITCRASQSINSWLAWYQQKPGKAPNLLIYKASSLESGVPSRFSGSGSGTEFTLTISSLQPDDFATYYCQQYKSYSWTFGQGTKVEIKR | % | 30
H4H12874P (antibody, human IgG4 S228P, kappa, V domains shown, human IgG4) VH: QVQLVESGGGVVQPGRSLRLSCAASGFNFRNFGMHWVRQAPGKGLEWVAGILYDGSSKYYADSVKDRFTISRDNSKNTLFLQMNSLRAEDTAMYYCAKEEDTAMVPFDSWGPGTLVTVSS VL: DIQLTQSPSFLSASVGDRVTITCWASQGISSYLAWYQQKPGKAPTLLIYAASTLQSGVPSRFSGSGSGTEFTLTISSLQPEDFASYYCQQLKSYPLTFGGGTKVEIKR | % | 55

Fill blank: measured Max Inhibition (%); IL-15 60 pM; NK92/hIL7R/STAT3-luc of the binder H4H12890P (antibody, human IgG4 S228P, kappa, V domains shown, human IgG4) VH: EVQLVESGGGLVQPGGSLRLSCAASGFTFNNYAMHWVRQAPGKGLEYVSSISSSGGSTYYEDSVKGRFTISRDNSKNTLYLQMGSLRAEDMAVYYCARSFYGSGTYYDTFDMWGQGTMVTVSS VL: DIQMTQSPSSLSASIGDRVTITCRASQSISRYLNWYQQKPGKAPKLLIYAASSLQSGVPSRFSASGSGTDFTLTISSLQPEDFATYYCQQSYSTPFTFGQGTKLEIKR is ____.
35
